Target: Neuraminidase from Clostridium perfringens (C. welchii) (EC 3.2.1.18)
Format: biochemical
Conditions: concentration that caused 50% enzyme activity loss; three repeats; pH 5.0, 37 °C; read-out: IC50, bacterial neuraminidase
Listing of entries alongside the reported log10(IC50).
Please interpret these as log10 of IC50 where IC50 is in µM.

Consider the worked cases shown below.
compound: CC(C)=CCc1cc(-c2cc(=O)c3c(O)cc(O)c(CC=C(C)C)c3o2)ccc1O [Compound 3, 5,7,4′-trihydroxy-8,3′-diprenyl flavone]
target-or-test-system: Neuraminidase from Clostridium perfringens (C. welchii) (EC 3.2.1.18)
measured-result: 1.10
--
compound: COc1ccc(-c2oc3c(c(O)cc4oc(C(C)(C)O)cc43)c(=O)c2O[C@@H]2O[C@@H](C)[C@H](O)[C@@H](O)[C@H]2O)cc1 [Compound 8]
target-or-test-system: Neuraminidase from Clostridium perfringens (C. welchii) (EC 3.2.1.18)
measured-result: 1.22
--
compound: COc1ccc(-c2oc3c(CC=C(C)C)c(O)cc(O)c3c(=O)c2O[C@@H]2O[C@@H](C)[C@H](O)[C@@H](O)[C@H]2O[C@@H]2OC[C@@H](O)[C@H](O)[C@H]2O)cc1 [Compound 6, sagittatoside B]
target-or-test-system: Neuraminidase from Clostridium perfringens (C. welchii) (EC 3.2.1.18)
measured-result: 2.03
--
compound: COc1ccc(-c2oc3c(CC=C(C)C)c(O[C@@H]4O[C@H](CO)[C@@H](O)[C@H](O)[C@H]4O)cc(O)c3c(=O)c2O[C@@H]2O[C@@H](C)[C@H](O)[C@@H](O)[C@H]2O)cc1 [Compound 5, icariin]
target-or-test-system: Neuraminidase from Clostridium perfringens (C. welchii) (EC 3.2.1.18)
measured-result: 1.76
--
compound: O=c1cc(-c2ccc(O)c(O)c2)oc2cc(O)cc(O)c12 [Luteolin, luteolin, reference compound]
target-or-test-system: Neuraminidase from Clostridium perfringens (C. welchii) (EC 3.2.1.18)
measured-result: 1.93
--
compound: O=C1c2c(O)cc(O)cc2O[C@H](c2ccc(O)cc2)[C@H]1O [Dihydrokaempferol, dihydrokaempferol, reference compound]
target-or-test-system: Neuraminidase from Clostridium perfringens (C. welchii) (EC 3.2.1.18)
measured-result: 2.70

Moving on to the next compound.
Entry COc1ccc(-c2oc3c(c(O)cc4oc(C(C)(C)OC)cc43)c(=O)c2OC2OC(C)C(O)C(O)C2O)cc1 (stereo not shown) [Compound 7] has what log10(IC50)?
0.46
